Consider the following compounds and their measured IC50 readings.
# target-under-test: guinea pig serum ACE (Cavia porcellus, UniProt H0UWL7)
# Construct: ACE from guinea pig serum
# Sequence (H0UWL7 33-1302): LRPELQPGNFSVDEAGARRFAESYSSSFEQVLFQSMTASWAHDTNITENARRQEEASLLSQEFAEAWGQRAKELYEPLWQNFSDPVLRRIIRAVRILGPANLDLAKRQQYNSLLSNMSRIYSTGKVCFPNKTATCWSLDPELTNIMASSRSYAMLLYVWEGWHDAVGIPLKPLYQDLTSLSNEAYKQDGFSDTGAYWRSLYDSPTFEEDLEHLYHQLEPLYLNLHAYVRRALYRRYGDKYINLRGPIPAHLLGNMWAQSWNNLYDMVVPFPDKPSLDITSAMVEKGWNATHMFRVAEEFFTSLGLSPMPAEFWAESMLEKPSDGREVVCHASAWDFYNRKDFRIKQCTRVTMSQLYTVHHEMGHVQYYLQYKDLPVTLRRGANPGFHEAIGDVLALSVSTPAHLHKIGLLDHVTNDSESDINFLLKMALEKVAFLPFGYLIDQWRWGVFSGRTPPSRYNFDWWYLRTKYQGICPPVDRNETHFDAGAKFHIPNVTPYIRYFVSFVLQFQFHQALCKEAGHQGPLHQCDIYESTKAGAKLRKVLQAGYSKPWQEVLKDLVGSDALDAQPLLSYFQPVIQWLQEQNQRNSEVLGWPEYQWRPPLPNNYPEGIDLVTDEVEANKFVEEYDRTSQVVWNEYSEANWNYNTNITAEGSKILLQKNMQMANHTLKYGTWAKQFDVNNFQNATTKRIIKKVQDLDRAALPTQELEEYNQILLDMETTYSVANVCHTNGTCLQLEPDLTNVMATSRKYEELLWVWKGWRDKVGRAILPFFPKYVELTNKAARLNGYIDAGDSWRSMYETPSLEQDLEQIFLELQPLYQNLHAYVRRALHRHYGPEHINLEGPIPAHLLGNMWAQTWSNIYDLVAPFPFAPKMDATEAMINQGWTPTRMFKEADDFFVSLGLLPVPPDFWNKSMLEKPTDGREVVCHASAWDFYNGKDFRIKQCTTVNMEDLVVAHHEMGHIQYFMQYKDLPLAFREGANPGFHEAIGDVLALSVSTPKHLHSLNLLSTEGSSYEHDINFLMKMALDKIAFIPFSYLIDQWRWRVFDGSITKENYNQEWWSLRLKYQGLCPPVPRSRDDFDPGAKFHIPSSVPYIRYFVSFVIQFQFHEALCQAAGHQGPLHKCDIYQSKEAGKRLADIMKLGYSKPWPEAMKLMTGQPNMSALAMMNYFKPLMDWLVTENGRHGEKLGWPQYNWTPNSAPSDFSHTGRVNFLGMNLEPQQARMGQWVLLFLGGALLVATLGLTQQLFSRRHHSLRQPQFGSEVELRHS
# run-description: In vitro ACE Assay: angiotensin converting enzyme inhibitory activity
# test-parameters: 10 min preincubation, 3H-hippuryl-glycylglycine substrate, 60 minute incubation at 37° C., read-out: IC50, Activity of Compounds of Formula V
Return type: number; implicit unit nM.

// solved cases for IC50 follow
CC(C)(C)C(=O)SCCC(=O)N1[C@H](C(=O)O)C[C@@H]2CCCC[C@@H]21 (relative stereo) [V: R=H; R1=H; R2=(CH3)3CCO; dl]
58
CCOC(=O)[C@@H]1C[C@@H]2CCCC[C@@H]2N1C(=O)CCSC(C)=O (relative stereo) [V: R=C2H5; R1=H; R2=CH3CO; --]
3800
O=C(O)[C@@H]1C[C@@H]2CCCC[C@@H]2N1C(=O)CCS (relative stereo) [V: R=H; R1=H; R2=H; --]
21
CC(CSC(=O)c1ccccc1)C(=O)N1[C@H](C(=O)O)C[C@@H]2CCCC[C@@H]21 (single isomer, unassigned; diastereomer a) [V: R=H; R1=CH3; R2=PhCO; l, A]
540
CC(CS)C(=O)N1[C@H](C(=O)O)C[C@@H]2CCCC[C@@H]21 (single isomer, unassigned; diastereomer a) [V: R=H; R1=CH3; R2=H; l, A]
5.2

Now turn to the next compound.
Per the records, this compound ( CC(=O)SCCC(=O)N1[C@H](C(=O)O)C[C@@H]2CCCC[C@@H]21 (relative stereo) [V: R=H; R1=H; R2=CH3CO; --] ) has IC50 equal to 450
